assay: Stat Signaling Pathway (AID 446); settings: ME-180 (cervical carcinoma) SIE beta-lactamase reporter, IL-6 stimulated, 5 h; at 7.69 µM (top of the series) unless noted;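 further: ME-180 cervical cancer cells given 40 pM IL-6 alongside compound; SIE-controlled beta-lactamase reporter measured as 460/530 nm FRET emission ratio; on the % scale 0 is the no-effect control and ±100 the full control effect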
Inconclusive results are not listed.
measure: activity, negative = inhibition (%)
Give bare numbers, in %.

CN(C)CCCc1c2ccccc2nc2ccc(Cl)cc12 18.2
CN1[C@@H](c2ccccc2)CC(=NO)C[C@H]1c1ccccc1 5.8
c1c[nH]c(CN2CCN(Cc3ncc[nH]3)CC2)n1 -5.33
Cc1ccc(S(=O)(=O)Nc2ccccc2C(=O)c2ccc(C)c(C)c2)cc1 -2.64
N#C[C@H](C(=O)O)C(c1c(Cl)cccc1Cl)[C@H](C#N)C(=O)O 5.11
NCCOc1ccccn1 -2.14

For each of the compounds below, note its activity, negative = inhibition.
1. O=C1C2[C@@H](c3ccccc3)N[C@@H](c3ccccc3)C1[C@H](c1ccccc1)N[C@H]2c1ccccc1
2. C[N+]1(CCN=C=NC2CCCCC2)CCOCC1
3. CC1(C)CC(Nc2ccc(Nc3ccccc3)cc2)CC(C)(C)N1

1.27
-0.107
-6.18

src = PubChem BioAssay (NCATS)
